Test system: SK-MEL-2
assay.info: Tested for inhibitory activity against SK-MEL-2 (human melanoma) tumor cell line
Type: functional, cell-based
measured.endpoint: pIC50
# pIC50 is unitless: minus log10 of the molar concentration; print number only

Tell me reported pIC50 for C=Cc1cc2c(cc1-c1cc3ccc(OC)c(OC)c3c(=O)n1C)OCO2 , tested with SK-MEL-2.
9.70

----------
System: A549
assay.info: Tested for in vitro cytotoxicity against A 549 (human lung) tumor cell line using sulforhodamine B (SRB) assay
Format: functional, cell-based
assay.conditions: Homo sapiens, A549
pIC50: −log10 of the molar value.
// label = true if pIC50 is not less than 5, otherwise false

Is the recorded value of pIC50 equal to or greater than 5 for this compound? Cc1ccc(-c2cc3cc(C)ccc3c(O)n2)cc1
true

Is the recorded value of pIC50 equal to or greater than 5 for this compound? Cc1ccc(-c2cc3ccccc3c(O)n2)cc1
false

Is the recorded value of pIC50 equal to or greater than 5 for this compound? Oc1nc(-c2ccccc2)cc2ccccc12
true

Is the recorded value of pIC50 equal to or greater than 5 for this compound? COc1ccc2c(c[n+](C)c3c4cc5c(cc4ccc23)OCO5)c1O
true

Is the recorded value of pIC50 equal to or greater than 5 for this compound? Cc1ccc2c(O)nc(-c3ccccc3)cc2c1
true

Is the recorded value of pIC50 equal to or greater than 5 for this compound? Cc1ccc2c(N3CCN(C)CC3)nc(-c3ccc(Cl)cc3)cc2c1
true

----------
Tested on: HCT-15
assay.info: Tested for in vitro cytotoxicity against HCT 15 (human colon) tumor cell line using sulforhodamine B (SRB) assay
Format: functional, cell-based
measured.endpoint: pIC50
# pIC50 is unitless: minus log10 of the molar concentration; print number only

Find the recorded pIC50 belonging to Cc1ccc2c(O)nc(-c3ccc(Cl)cc3)cc2c1 and report it.
4.95

----------
System: A549
assay.info: Tested for in vitro cytotoxicity against A 549 (human lung) tumor cell line using sulforhodamine B (SRB) assay
Format: functional, cell-based
measured.endpoint: pIC50
# pIC50 is unitless: minus log10 of the molar concentration; print number only

Find the recorded pIC50 belonging to Cc1ccc2c(O)nc(-c3ccc(Cl)cc3)cc2c1 and report it.
5.24

----------
A collection of compounds and their measured IC50
Test system: A549
assay.info: Tested for in vitro cytotoxicity against A 549 (human lung) tumor cell line using sulforhodamine B (SRB) assay
Type: functional, cell-based
assay.conditions: Homo sapiens, A549
Output should be the measured figure followed by the unit it is expressed in.

Completed entries (count: 3):
Tell me reported IC50 for COc1ccc(-c2cc3c(N(C)C)cccc3c(N3CCN(C)CC3)n2)cc1 , tested with A549.
1.82 µM

Tell me reported IC50 for Cc1ccc2c(O)nc(-c3ccccc3C)cc2c1 , tested with A549.
5.89 µM

Tell me reported IC50 for CN1CCN(c2nc(-c3ccccc3)cc3ccccc23)CC1 , tested with A549.
25.1 µM

---
Tell me reported IC50 for Cc1ccc2c(S)nc(-c3ccccc3)cc2c1 , tested with A549.
8.51 µM

----------
System: A549
assay.info: Tested for in vitro cytotoxicity against A 549 (human lung) tumor cell line using sulforhodamine B (SRB) assay
Type: functional, cell-based
assay.conditions: Homo sapiens, A549
A collection of compounds and their measured pIC50
# pIC50 is unitless: minus log10 of the molar concentration; print number only

Find the recorded pIC50 belonging to CN1CCN(c2nc(-c3ccc(Cl)cc3)cc3c(N(C)C)cccc23)CC1 and report it.
5.13

Find the recorded pIC50 belonging to Cc1ccc2c(N3CCN(C)CC3)nc(-c3ccccc3C)cc2c1 and report it.
5.12

Find the recorded pIC50 belonging to COc1ccc(-c2cc3cc(C)ccc3c(N3CCN(C)CC3)n2)cc1 and report it.
5.13

---
Find the recorded pIC50 belonging to Cc1ccc(-c2cc3cc(C)ccc3c(N3CCN(C)CC3)n2)cc1 and report it.
5.14

Find the recorded pIC50 belonging to CN1CCN(c2nc(-c3ccccc3)cc3c(N(C)C)cccc23)CC1 and report it.
5.00
